System: phosphorylation of AKT (pAKT) in T47D cells expressing mutant PI3Ka (H1047R)
Assay: In vitro cell pAKT (Ser473) HTRF, T47D cells
Type: cell-based
Details: cellular pAKT, T47D cells, mutant PI3Ka (H1047R), 6 hours; read-out: Avg T-47D IC50
parameter measured: IC50

Observe how each entry below is paired with its result.
>>> measurement("Cc1cc(C(C)Nc2ccccc2C(=O)O)c2cc(N3Cc4ccc(F)c(F)c4C3)n(C)c(=O)c2c1 (single isomer, unassigned) [Example 178]")
"1 to 500 nM"
>>> measurement("Cc1cc(C(C)Nc2ccccc2C(=O)O)c2cc(N3CC4(CCN(CC(F)(F)F)C4)C3)n(C)c(=O)c2c1 (stereo not drawn)")
"1 to 500 nM"
>>> measurement("Cc1cc(C(C)Nc2ccccc2C(=O)O)c2cc(N3CCN4CC(F)(F)CC4C3)n(C)c(=O)c2c1 (single isomer, unassigned) [Example 122]")
"> 15000 nM"

Param request: IC50 | system phosphorylation of AKT (pAKT) in T47D cells expressing mutant PI3Ka (H1047R) | item Cc1ccc(N[C@H](C)c2cc(F)cc3c(=O)n(C)c(C4CC4C4CC4)cc23)c(C(=O)O)n1 (stereo in doubt) [Example 46] 1 to 500 nM

Enter IC50 (test system phosphorylation of AKT (pAKT) in T47D cells expressing mutant PI3Ka (H1047R)) for Cc1cc(C(C)Nc2ccccc2C(=O)O)c2cc(N3Cc4ccncc4C3)n(C)c(=O)c2c1 (single isomer, unassigned) [Example 107] 1 to 500 nM

Identify measured IC50 obtained with phosphorylation of AKT (pAKT) in T47D cells expressing mutant PI3Ka (H1047R) for CC(Nc1ccccc1C(=O)O)c1cc(F)cc2c(=O)n(C)c(N3C4CCC3CN(CC(F)(F)F)C4)c(F)c12 (single isomer, unassigned) [Example 567] . 1 to 500 nM

* * *

System: SKBR3 cells express WT PI3Ka
Assay: In vitro cell proliferation, SKBR3 cells (CellTiter-Glo)
Assay type: cell-based
Conditions: Homo sapiens, SK-BR-3, 72 h, inhibition of proliferation
List of EC50 values.

Known results for compounds:
>>> measurement("Cc1cc([C@@H](C)Nc2cccc(F)c2C(=O)O)c2cc(N3CCN(C)[C@H](C(F)(F)F)C3)n(C)c(=O)c2c1")
"> 15 µM"
>>> measurement("Cc1cc([C@@H](C)Nc2ccccc2C(=O)O)c2cc(N3CCN(c4ncccc4C#N)CC3)n(C)c(=O)c2c1")
"2 to 15 µM"
>>> measurement("C[C@@H](Nc1ccccc1C(=O)O)c1cc(F)cc2c(=O)n(C)c(C3C[C@@H]3C(F)F)cc12 (single isomer, unassigned)")
"> 15 µM"

# assay system SKBR3 cells express WT PI3Ka: give EC50 of Cc1cc(C(C)Nc2ccc(Cl)nc2C(=O)O)c2cc(N3CCC(C)(C)CC3)n(C)c(=O)c2c1 (centres unmarked) [Example 88] 2 to 15 µM

Name the recorded EC50 of C[C@@H](Nc1ccccc1C(=O)O)c1cc(F)cc2c(=O)n(C)c(N3CCN(c4nccs4)CC3)cc12 , assay system SKBR3 cells express WT PI3Ka. > 15 µM

Param request: EC50 | system SKBR3 cells express WT PI3Ka | item Cc1cc(C(C)Nc2ccccc2C(=O)O)c2cc(N3CCC4(CCC4)CC3)n(C)c(=O)c2c1 (centres unmarked) > 15 µM

System SKBR3 cells express WT PI3Ka. Read-out EC50. Item Cc1cc([C@@H](C)Nc2ccccc2C(=O)O)c2cc(N3CC(F)(c4cccnc4)C3)n(C)c(=O)c2c1 . Report value. > 15 µM

For SKBR3 cells express WT PI3Ka, give EC50 of the listed compound: Cc1cc([C@@H](C)Nc2ccccc2C(=O)O)c2cc(N3CCN(c4ccc(C)nn4)CC3)n(C)c(=O)c2c1 2 to 15 µM

Give reported EC50 for Cc1ncc(-c2cc3c([C@@H](C)Nc4ccccc4C(=O)O)cc(F)cc3c(=O)n2C)s1 (SKBR3 cells express WT PI3Ka) > 15 µM
